# experimental.details: Cyto-toxicity (MTT assay)
# Format: cell-based
measured.attribute: viability at 4 days, 0.01 µM (%)
Hi! Could you send only the number? It should be in %, unit omitted.

- CC(C)C1=C2[C@H]3CC[C@@H]4[C@@]5(C)CC[C@H](OC(=O)[C@H]6C[C@@H](C(=O)O)C6(C)C)C(C)(C)[C@@H]5CC[C@@]4(C)[C@]3(C)CC[C@@]2(NC(=O)C(C)(C)NCc2ccccn2)CC1=O: 59
- Cc1cccc(C(=O)NC(C)(C)C(=O)N[C@@]23CC[C@]4(C)[C@H](CC[C@@H]5[C@@]6(C)CC[C@H](OC(=O)[C@H]7C[C@@H](C(=O)O)C7(C)C)C(C)(C)[C@@H]6CC[C@]54C)C2=C(C(C)C)C(=O)C3)n1: 77
- CCN1CCN(CC(=O)NC(C)(C)C(=O)N[C@@]23CC[C@]4(C)[C@H](CC[C@@H]5[C@@]6(C)CC[C@H](OC(=O)[C@H]7C[C@@H](C(=O)O)C7(C)C)C(C)(C)[C@@H]6CC[C@]54C)C2=C(C(C)C)C(=O)C3)CC1: 100
- CC(C)C1=C2[C@H]3CC[C@@H]4[C@@]5(C)CC[C@H](OC(=O)[C@H]6C[C@@H](C(=O)O)C6(C)C)C(C)(C)[C@@H]5CC[C@@]4(C)[C@]3(C)CC[C@@]2(NC(=O)C(C)(C)NC(=O)c2nccn2C)CC1=O: 37

-- ask Please look up its viability at 4 days, 0.01 µM: Cc1ccc(C(=O)NC2(C(=O)N[C@@]34CC[C@]5(C)[C@H](CC[C@@H]6[C@@]7(C)CC[C@H](OC(=O)[C@H]8C[C@@H](C(=O)O)C8(C)C)C(C)(C)[C@@H]7CC[C@]65C)C3=C(C(C)C)C(=O)C4)CCCC2)cn1
-- reply 75
